The origin of these recorded values is patent US12516056B2.

target: Recombinant JAK3 (Homo sapiens); construct: purchased Carna Biosciences; experiment: JAK biochemical assay (LANCE Ultra TR-FRET), JAK3; settings: recombinant JAK3, TR-FRET; read-out: Biochemical Assay (μM) JAK3
Sequence (P52333 whole entry): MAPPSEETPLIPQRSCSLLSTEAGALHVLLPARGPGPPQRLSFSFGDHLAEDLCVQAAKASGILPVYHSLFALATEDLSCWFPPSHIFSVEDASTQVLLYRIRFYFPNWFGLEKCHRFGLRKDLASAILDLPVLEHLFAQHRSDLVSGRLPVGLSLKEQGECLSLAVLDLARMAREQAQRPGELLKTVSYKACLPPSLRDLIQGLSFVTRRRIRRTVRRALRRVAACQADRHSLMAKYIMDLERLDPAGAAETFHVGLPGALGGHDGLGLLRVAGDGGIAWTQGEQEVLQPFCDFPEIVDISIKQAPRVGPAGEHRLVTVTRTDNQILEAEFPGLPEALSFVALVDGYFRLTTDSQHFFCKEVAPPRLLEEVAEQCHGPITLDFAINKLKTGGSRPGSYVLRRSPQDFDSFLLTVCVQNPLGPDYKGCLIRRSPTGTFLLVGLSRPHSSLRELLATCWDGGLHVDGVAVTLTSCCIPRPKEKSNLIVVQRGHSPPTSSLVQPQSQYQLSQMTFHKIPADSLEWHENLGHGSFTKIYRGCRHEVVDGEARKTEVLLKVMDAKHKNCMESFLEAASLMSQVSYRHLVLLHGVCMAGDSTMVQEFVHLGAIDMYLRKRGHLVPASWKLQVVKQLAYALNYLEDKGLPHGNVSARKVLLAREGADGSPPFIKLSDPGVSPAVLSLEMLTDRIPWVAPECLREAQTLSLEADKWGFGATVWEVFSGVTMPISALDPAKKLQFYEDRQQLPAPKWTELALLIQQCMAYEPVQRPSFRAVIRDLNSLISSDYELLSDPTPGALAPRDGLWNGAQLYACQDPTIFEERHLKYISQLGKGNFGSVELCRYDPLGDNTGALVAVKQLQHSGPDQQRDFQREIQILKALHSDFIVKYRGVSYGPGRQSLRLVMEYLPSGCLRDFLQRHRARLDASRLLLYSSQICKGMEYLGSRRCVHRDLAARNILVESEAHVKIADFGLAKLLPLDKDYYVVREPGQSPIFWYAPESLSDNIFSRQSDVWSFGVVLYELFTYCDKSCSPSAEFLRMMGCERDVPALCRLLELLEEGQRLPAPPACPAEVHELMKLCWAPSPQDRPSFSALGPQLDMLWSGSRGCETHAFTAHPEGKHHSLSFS
OBSERVED PROPERTY: IC50

Below, each entry is followed by its recorded IC50 result.
compound=O=C(NCC1CCCC1)n1cc(-c2ccnc3[nH]c(=O)[nH]c23)cn1 study_target="Recombinant JAK3 (Homo sapiens)" observed_property=IC50 test_result="> 10 µM"
compound=N#CCc1ccc(-n2cc(-c3ccnc4[nH]cnc34)cn2)c(F)c1 study_target="Recombinant JAK3 (Homo sapiens)" observed_property=IC50 test_result="> 10 µM"
compound=CNC(=O)C[C@@H](c1ccc(-n2cc(-c3ccnc4[nH]cnc34)cn2)nc1)C(F)(F)F study_target="Recombinant JAK3 (Homo sapiens)" observed_property=IC50 test_result="< 0.1 µM"
compound="CC(C)C(=O)NCCC(c1ccc(-n2cc(-c3ccnc4[nH]cnc34)cn2)nc1)C(F)(F)F (centres unmarked)" study_target="Recombinant JAK3 (Homo sapiens)" observed_property=IC50 test_result="0.023 µM"
compound=CNC(=O)C[C@H](c1ccc(-n2cc(-c3ccnc4[nH]cnc34)cn2)nc1)C(F)(F)F study_target="Recombinant JAK3 (Homo sapiens)" observed_property=IC50 test_result="< 0.1 µM"
compound="CC(C)N(CCC(c1ccc(-n2cc(-c3ccnc4[nH]cnc34)cn2)nc1)C(F)(F)F)C(C)C (centres unmarked)" study_target="Recombinant JAK3 (Homo sapiens)" observed_property=IC50 test_result="> 0.1 µM"

Input CS(=O)(=O)Cc1ccc(-n2cc(-c3ccnc4[nH]cnc34)cn2)nc1 . Output IC50: < 0.5 µM

Record CC(C)[C@@H](C#N)NC(=O)n1cc(-c2ccnc3[nH]c(=O)[nH]c23)cn1 , field IC50: < 0.5 µM

* * *

Each item that follows carries a reported IC50.
Molecular target: Recombinant JAK1 (Homo sapiens)
Construct: purchased Carna Biosciences
Sequence (P23458 whole entry): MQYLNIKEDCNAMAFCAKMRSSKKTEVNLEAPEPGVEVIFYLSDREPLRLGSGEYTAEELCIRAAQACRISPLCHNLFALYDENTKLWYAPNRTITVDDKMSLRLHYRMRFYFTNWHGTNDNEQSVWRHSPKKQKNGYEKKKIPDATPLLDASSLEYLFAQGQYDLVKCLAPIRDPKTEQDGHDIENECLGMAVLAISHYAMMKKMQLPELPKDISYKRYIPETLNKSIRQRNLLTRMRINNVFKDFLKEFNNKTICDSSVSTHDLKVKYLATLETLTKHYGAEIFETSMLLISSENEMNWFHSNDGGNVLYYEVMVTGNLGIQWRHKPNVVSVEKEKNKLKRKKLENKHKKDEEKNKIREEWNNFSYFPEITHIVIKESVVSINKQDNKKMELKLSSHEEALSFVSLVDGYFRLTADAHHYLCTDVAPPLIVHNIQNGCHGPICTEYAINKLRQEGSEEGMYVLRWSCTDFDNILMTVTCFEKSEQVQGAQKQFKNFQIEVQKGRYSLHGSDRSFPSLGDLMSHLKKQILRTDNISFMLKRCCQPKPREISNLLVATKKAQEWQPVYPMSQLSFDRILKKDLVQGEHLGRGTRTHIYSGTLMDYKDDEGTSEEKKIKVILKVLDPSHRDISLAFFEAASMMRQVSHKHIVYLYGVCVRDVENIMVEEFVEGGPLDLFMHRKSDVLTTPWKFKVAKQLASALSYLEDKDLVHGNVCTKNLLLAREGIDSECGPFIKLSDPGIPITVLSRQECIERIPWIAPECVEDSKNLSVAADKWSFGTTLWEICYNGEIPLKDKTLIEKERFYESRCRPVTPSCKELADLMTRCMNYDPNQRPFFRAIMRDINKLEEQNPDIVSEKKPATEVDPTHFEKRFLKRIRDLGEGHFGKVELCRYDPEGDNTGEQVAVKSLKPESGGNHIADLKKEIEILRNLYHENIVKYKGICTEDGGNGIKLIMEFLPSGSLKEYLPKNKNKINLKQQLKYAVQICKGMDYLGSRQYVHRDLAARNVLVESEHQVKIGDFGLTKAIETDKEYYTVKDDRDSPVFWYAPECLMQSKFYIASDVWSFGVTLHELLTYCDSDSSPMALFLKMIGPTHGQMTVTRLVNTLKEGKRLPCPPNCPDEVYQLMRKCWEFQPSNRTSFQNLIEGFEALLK
Test: JAK biochemical assay (LANCE Ultra TR-FRET), JAK1
Conditions: recombinant JAK1, TR-FRET; read-out: Biochemical Assay (μM) JAK1
Method: Recombinant JAK1, JAK2, JAK3 and TYK2 (Carna Biosciences) were used to develop biochemical assays in 50 mM HEPES pH 7.5, 1 mM EGTA, 10 mM MgCl2, 2 mM DTT and 0.01% Tween-20. […] The intensity of the light emission is proportional to the level of ULight substrate phosphorylation. Compounds which interfere with JAK enzyme activity show a lesser substrate phosphorylation and values are projected in terms of % inhibition in comparison to vehicle control.
Counter-ions that a name gives are not always drawn.

compound="CC(C)(CO)C(c1ccc(-n2cc(-c3ccnc4[nH]cnc34)cn2)nc1)C(F)(F)F (stereo not shown)" test_result="> 0.1 µM"
compound="CN1CCN(CCC(c2ccc(-n3cc(-c4ccnc5[nH]cnc45)cn3)nc2)C(F)(F)F)CC1 (stereo not shown)" test_result="< 0.1 µM"
compound=O=C(NCC(F)(F)F)c1ccc(-c2ccnc3[nH]c(=O)[nH]c23)cc1 test_result="> 10 µM"
compound="O=C(NCCC(c1ccc(-n2cc(-c3ccnc4[nH]cnc34)cn2)nc1)C(F)(F)F)NC1CC1 (stereo not shown)" test_result="< 0.1 µM"
compound="CNC(=O)N1CC(C(O)(c2ccc(-n3cc(-c4ccnc5[nH]cnc45)cn3)nc2)C(F)(F)F)C1 (stereo not shown)" test_result="0.006 µM"

Record CNCC[C@@H](c1ccc(-n2cc(-c3ccnc4[nH]cnc34)cn2)nc1)C(F)(F)F [Example 1217, TFA salt] has Recombinant JAK1 (Homo sapiens) IC50 equal to 0.0026 µM

* * *

As shown below, each of these compounds has a reported IC50 value.
biological target: Recombinant JAK3 (Homo sapiens); construct: purchased Carna Biosciences; assay: JAK biochemical assay (LANCE Ultra TR-FRET), JAK3; conditions: recombinant JAK3, TR-FRET; read-out: Biochemical Assay (μM) JAK3

Illustrative cases are given below, each with its answer.
compound="O=C(C1CC1)N1CCC(C(O)(c2ccc(-n3cc(-c4ccnc5[nH]cnc45)cn3)nc2)C(F)(F)F)CC1 (centres unmarked)" test_result="< 0.1 µM"
compound="CC(C#N)c1ccc(-n2cc(-c3ccnc4[nH]cnc34)cn2)nc1 (centres unmarked)" test_result="< 0.1 µM"
compound="O=S(=O)(CC1CC1)CC(c1ccc(-n2cc(-c3ccnc4[nH]cnc34)cn2)nc1)C(F)(F)F (centres unmarked)" test_result="> 0.1 µM"

Looking up CS(=O)(=O)CC[C@H](c1ccc(-n2cc(-c3ccnc4[nH]cnc34)cn2)nc1)C(F)(F)F , I see its IC50 listed as 0.041 µM

CC(C)[C@@H](C#N)NC(=O)n1cc(-c2ccnc3[nH]cnc23)cn1 has a reported IC50 of > 0.5 µM

Entry under test: O=C(NCC(F)(F)F)Nc1ccc(-c2ccnc3[nH]c(=O)[nH]c23)cc1 . Its IC50 was 0.175 µM

The compound listed as N#CCC(C1CCCC1)n1cc(-c2ccnc3[nH]c(-c4ccccc4)nc23)cn1 (centres unmarked) has a reported IC50 of < 1 µM

Noted for O=C(NCCC(c1ccc(-n2cc(-c3ccnc4[nH]cnc34)cn2)nc1)C(F)(F)F)NC1CC1 (centres unmarked) : its IC50 reads < 0.1 µM

* * *

Target: Recombinant TYK2 (Homo sapiens)
Construct: purchased Carna Biosciences
Sequence (P29597 whole entry): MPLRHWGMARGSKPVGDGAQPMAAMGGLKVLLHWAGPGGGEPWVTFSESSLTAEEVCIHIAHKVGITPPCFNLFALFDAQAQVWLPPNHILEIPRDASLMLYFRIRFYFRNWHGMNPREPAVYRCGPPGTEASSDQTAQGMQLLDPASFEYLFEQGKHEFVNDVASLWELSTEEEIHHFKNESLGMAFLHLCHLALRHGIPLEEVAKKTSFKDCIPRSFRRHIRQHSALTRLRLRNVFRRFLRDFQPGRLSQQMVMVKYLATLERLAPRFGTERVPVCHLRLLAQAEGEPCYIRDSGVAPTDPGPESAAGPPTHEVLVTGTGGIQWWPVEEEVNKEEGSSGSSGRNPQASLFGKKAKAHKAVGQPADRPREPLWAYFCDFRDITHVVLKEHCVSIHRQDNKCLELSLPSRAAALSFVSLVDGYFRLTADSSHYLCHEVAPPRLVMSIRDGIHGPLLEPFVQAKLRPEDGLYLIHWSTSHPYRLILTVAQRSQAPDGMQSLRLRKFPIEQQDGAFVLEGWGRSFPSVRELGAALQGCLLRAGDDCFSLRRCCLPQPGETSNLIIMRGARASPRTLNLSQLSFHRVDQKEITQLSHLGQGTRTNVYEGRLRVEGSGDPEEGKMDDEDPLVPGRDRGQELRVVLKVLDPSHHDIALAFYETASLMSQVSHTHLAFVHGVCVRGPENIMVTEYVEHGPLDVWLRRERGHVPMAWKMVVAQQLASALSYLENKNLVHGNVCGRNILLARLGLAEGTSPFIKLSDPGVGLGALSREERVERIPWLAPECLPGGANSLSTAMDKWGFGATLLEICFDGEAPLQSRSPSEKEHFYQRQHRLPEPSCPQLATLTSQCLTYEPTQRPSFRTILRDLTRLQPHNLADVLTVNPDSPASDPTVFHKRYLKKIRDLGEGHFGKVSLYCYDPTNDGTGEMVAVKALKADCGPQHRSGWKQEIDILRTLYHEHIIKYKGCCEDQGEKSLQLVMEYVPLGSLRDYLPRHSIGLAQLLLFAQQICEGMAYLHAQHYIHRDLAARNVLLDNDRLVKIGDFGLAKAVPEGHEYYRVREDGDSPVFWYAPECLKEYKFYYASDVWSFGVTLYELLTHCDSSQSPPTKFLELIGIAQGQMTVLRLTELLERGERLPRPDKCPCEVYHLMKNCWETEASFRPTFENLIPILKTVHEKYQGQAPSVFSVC
Assay: JAK biochemical assay (LANCE Ultra TR-FRET), TYK2
Conditions: recombinant TYK2, TR-FRET; read-out: Biochemical Assay (μM) TYK2
Protocol: Recombinant JAK1, JAK2, JAK3 and TYK2 (Carna Biosciences) were used to develop biochemical assays in 50 mM HEPES pH 7.5, 1 mM EGTA, 10 mM MgCl2, 2 mM DTT and 0.01% Tween-20. […] The intensity of the light emission is proportional to the level of ULight substrate phosphorylation. Compounds which interfere with JAK enzyme activity show a lesser substrate phosphorylation and values are projected in terms of % inhibition in comparison to vehicle control.
IC50: recorded values

compound=O=C(Nc1ccncc1)Nc1ccc(-c2ccnc3[nH]c(=O)[nH]c23)cc1 observed_property=IC50 test_result="> 10 µM"

Looking up CS(=O)(=O)CCC(c1ccnc(-n2cc(-c3ccnc4[nH]cnc34)cn2)c1)C(F)(F)F (stereo not shown) , I see its IC50 listed as > 1 µM

IC50 in this record for CS(=O)(=O)N1CCC(NC(=O)N2CCN(c3ccnc4[nH]c(=O)[nH]c34)CC2)CC1 : > 10 µM

Measured IC50 of CCN1CCC(C(O)(c2ccc(-n3cc(-c4ccnc5[nH]cnc45)cn3)nc2)C(F)(F)F)CC1 (stereo not shown) : > 0.1 µM

Entry N#CCCC1CCN(C(=O)n2cc(-c3ccnc4[nH]c(=O)[nH]c34)cn2)C1 (stereo not shown) , IC50 reported as > 1 µM

compound CC(CCS(C)(=O)=O)c1ccc(-n2cc(-c3ccnc4[nH]cnc34)cn2)nc1 (stereo not shown) , IC50 observed: > 1 µM

IC50 reported for this compound CS(=O)(=O)NC(c1ccc(-n2cc(-c3ccnc4[nH]cnc34)cn2)nc1)C(F)(F)F (stereo not shown) : > 1 µM

// IC50 value for CCN1CCC([C@@](O)(c2ccc(-n3cc(-c4ccnc5[nH]cnc45)cn3)nc2)C(F)(F)F)C1 (stereo partly shown) : 0.2 µM

Quick note, IC50 for N#C[C@H](NC(=O)n1cc(-c2ccnc3[nH]c(=O)[nH]c23)cn1)C1CC1 landed at > 1 µM

Form field IC50, entry O=C(NCC(F)(F)F)C(c1ccc(-n2cc(-c3ccnc4[nH]cnc34)cn2)nc1)C1CC1 (stereo not shown) : > 10 µM

According to the records, this compound CNC(=O)CC(c1ccc(-n2cc(-c3ccnc4[nH]cnc34)cn2)nc1)C(F)(F)F (stereo not shown) displays IC50 of > 1 µM

The measured IC50 associated with CNC(=O)C[C@H](c1ccc(-n2cc(-c3ccnc4[nH]cnc34)cn2)nc1)C(F)(F)F reads > 0.5 µM

get_value(item= CC1(C)CN(C(=O)Nc2ccc(-c3ccnc4[nH]c(=O)[nH]c34)cc2)C1 , readout=IC50) returns > 1 µM

For record CC(NC(=O)n1cc(-c2ccnc3[nH]c(=O)[nH]c23)cn1)C(=O)N1CC(C#N)C1 (stereo not shown) the listed IC50 is > 10 µM

Lookup result for CC(C)N1CCC([C@@](O)(c2ccc(-n3cc(-c4ccnc5[nH]cnc45)cn3)nc2)C(F)(F)F)C1 (stereo partly shown) ; measured IC50: > 1 µM

Looking up CNC(=O)CCC(c1ccc(-n2cc(-c3ccnc4[nH]cnc34)cn2)nc1)C(F)(F)F (stereo not shown) , I found its IC50 recorded as > 1 µM

* * *

// reported IC50 per item
Target: Recombinant JAK2 (Homo sapiens, UniProt O60674)
Construct: purchased Carna Biosciences
Sequence (O60674 whole entry): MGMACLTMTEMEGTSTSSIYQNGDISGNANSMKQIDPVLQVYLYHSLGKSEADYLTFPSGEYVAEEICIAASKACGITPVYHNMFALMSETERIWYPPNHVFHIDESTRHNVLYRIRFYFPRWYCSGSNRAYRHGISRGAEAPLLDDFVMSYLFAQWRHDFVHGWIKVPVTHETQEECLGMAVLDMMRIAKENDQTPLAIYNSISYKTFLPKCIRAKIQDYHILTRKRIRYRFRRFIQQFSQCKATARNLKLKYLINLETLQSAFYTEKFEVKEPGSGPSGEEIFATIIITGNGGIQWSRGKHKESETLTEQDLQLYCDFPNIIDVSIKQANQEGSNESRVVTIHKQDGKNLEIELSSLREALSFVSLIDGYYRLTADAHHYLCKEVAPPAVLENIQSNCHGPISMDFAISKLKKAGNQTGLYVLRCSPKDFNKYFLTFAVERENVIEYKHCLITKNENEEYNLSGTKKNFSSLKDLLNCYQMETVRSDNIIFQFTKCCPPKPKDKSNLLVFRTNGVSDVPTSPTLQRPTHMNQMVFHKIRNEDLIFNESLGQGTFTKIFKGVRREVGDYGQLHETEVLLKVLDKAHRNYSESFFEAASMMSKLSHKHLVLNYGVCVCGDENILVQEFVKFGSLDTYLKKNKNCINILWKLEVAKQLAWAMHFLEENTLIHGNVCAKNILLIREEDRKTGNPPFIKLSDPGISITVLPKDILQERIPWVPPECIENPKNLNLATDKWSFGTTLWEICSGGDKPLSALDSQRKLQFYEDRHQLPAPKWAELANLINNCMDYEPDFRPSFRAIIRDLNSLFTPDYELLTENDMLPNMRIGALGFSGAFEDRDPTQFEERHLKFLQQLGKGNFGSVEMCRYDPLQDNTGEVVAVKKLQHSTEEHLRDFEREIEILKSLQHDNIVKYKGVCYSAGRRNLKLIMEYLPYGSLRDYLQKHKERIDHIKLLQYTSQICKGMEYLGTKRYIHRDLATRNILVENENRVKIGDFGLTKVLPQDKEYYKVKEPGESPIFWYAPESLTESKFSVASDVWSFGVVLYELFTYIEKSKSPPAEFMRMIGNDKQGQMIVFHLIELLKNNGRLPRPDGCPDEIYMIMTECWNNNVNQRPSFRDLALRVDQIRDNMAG
Experiment: JAK biochemical assay (LANCE Ultra TR-FRET), JAK2
Conditions: recombinant JAK2, TR-FRET; read-out: Biochemical Assay (μM) JAK2
Protocol: Recombinant JAK1, JAK2, JAK3 and TYK2 (Carna Biosciences) were used to develop biochemical assays in 50 mM HEPES pH 7.5, 1 mM EGTA, 10 mM MgCl2, 2 mM DTT and 0.01% Tween-20. […] The intensity of the light emission is proportional to the level of ULight substrate phosphorylation. Compounds which interfere with JAK enzyme activity show a lesser substrate phosphorylation and values are projected in terms of % inhibition in comparison to vehicle control.

# molecule COC(c1cccc(-n2cc(-c3ccnc4[nH]cnc34)cn2)n1)C(F)(F)F (stereo not shown) ; its IC50 = > 1 µM

Query c1cc(-c2cnn(-c3ccc(CC4COC4)cn3)c2)c2nc[nH]c2n1 yields IC50 of > 0.5 µM

Value of IC50 reported for the molecule CC(NC(=O)Nc1ccc(-c2ccnc3[nH]c(=O)[nH]c23)cc1)C(F)(F)F (stereo not shown) is < 0.5 µM

For this molecule ( CNC(=O)C[C@H](c1ccc(-n2cc(-c3ccnc4[nH]cnc34)cn2)nc1)C(F)(F)F ), measured IC50 is < 0.1 µM
